- assay_method_text: half-life in marmosets
- Format: in vivo
- condition_label: marmoset, in vivo, 3 mg/kg
- Method: when dosed to marmosets at 3 mg/kg.
observation_type: half-life (h)
Kindly provide the numeric value in h only, without the unit symbol.

query: Which half-life value is on record for CC(C)(O/N=C(\C(=O)NC1C(=O)N2C(C(=O)O)=C(CSc3nnnn3-c3cc(O)c(O)c(Cl)c3CC(=O)O)CS[C@H]12)c1csc(N)n1)C(=O)O (stereo partly shown) ?
result: 20.7

Each recorded value in this set is attributed to patent US5200404A.
